# SYSTEM NAME: Epidermal growth factor receptor (Homo sapiens) (UniProt P00533)
# Sequence (P00533 whole entry, looked up): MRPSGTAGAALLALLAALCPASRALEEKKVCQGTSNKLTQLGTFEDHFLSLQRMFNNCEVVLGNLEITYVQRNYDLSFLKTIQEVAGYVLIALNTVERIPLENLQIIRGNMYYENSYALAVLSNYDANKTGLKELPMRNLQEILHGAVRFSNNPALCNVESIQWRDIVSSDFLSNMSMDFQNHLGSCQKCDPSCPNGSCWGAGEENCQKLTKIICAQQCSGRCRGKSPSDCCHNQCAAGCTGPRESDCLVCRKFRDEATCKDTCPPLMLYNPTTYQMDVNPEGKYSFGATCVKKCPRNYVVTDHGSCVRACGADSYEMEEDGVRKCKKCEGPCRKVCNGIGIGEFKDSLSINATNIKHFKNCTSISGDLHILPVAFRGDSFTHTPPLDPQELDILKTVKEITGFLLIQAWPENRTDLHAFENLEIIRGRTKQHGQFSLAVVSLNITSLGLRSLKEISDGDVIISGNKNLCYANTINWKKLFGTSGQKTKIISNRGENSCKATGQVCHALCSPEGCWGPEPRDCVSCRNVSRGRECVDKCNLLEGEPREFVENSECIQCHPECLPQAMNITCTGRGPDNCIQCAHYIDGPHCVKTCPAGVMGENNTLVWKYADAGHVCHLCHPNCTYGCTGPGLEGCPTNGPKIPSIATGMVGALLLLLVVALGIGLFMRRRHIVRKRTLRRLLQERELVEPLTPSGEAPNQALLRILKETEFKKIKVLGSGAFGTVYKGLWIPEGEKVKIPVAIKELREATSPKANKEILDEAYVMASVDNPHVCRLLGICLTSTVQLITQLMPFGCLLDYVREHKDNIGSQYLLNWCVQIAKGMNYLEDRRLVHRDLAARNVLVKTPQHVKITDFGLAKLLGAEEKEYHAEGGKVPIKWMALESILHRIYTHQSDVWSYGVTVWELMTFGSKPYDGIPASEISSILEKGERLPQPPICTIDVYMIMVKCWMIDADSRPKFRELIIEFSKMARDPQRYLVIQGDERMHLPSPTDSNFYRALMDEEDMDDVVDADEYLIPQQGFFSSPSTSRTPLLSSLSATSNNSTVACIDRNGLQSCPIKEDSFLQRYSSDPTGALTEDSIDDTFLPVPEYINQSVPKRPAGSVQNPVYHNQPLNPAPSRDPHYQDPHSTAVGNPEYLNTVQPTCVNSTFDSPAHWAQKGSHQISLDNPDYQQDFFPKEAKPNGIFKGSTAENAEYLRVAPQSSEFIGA
# ASSAY: EGFR binders on small-molecule microarrays, primary screen, biochemical, small-molecule microarray, 635 nm fluorescence (AID 1104);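 note: score merges 667 nm emission intensity with spot signal to noise over triplicate slides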
# REPORTED CONDITIONS: EGFR binding, higher = more signal
Below: a set of entries, each annotated with reported composite z-score.

Consider the following illustrative entries.
{"MOLECULE": "C=C(CCCC)C(=O)CC[C@@H](OC(C)=O)c1cccc(OCCO)c1", "RECORDED METRIC": "composite z-score", "RESULT": -0.161}
{"MOLECULE": "CC1(C)OCC(C(O)C2=CCCCC2=O)CO1 (stereo not given)", "RECORDED METRIC": "composite z-score", "RESULT": 0.625}
{"MOLECULE": "COC(=O)C1(C)C=C2C(=C(c3ccccc3)C(=O)C2C)CN1 (stereo not given)", "RECORDED METRIC": "composite z-score", "RESULT": -0.709}
{"MOLECULE": "COCCOC(=O)N1C(=O)[C@@]2(c3cc(C#Cc4ccc(OC)cc4)ccc31)[C@H](C(=O)N1CCN(c3ncccn3)CC1)[C@H]1C(=O)O[C@H](c3ccccc3)[C@H](c3ccccc3)N1[C@@H]2c1ccc(OCCO)cc1", "RECORDED METRIC": "composite z-score", "RESULT": 0.624}

# input Reported composite z-score, molecule "CCOC(=O)NN=C1C[C@@H](O)[C@@H](O)[C@@H]2[C@@H]3C(=O)N(C4CCCCC4)C(=O)[C@@H]3CC[C@H]12" : ____
# output 0.416

# input Another molecule: "CC(C)=CCCC(C)=CCON=C1[C@H]2CCn3c(=O)n(Cc4cc5c(cc4Cl)OCO5)c(=O)n3[C@H]2[C@H](O)[C@@H]2O[C@H]12"
# output 0.984

# input Next entry: COc1ccc(O[C@H]2C=C[C@@H](c3ccccc3)O[C@@H]2COC(=O)CCC(C)=NOC(C)CN2CCCCc3nc(C)c(C)cc32)cc1 (stereo not given in full)
# output -0.457

====

# ASSAY: small-molecule microarray binders of probe aDKK1, primary screen, biochemical, biotinylated probe, 635/667 nm fluorescence (AID 1099);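 note: score merges 667nm spot fluorescence with signal to noise across triplicate slides; reference of the scale not given here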
# REPORTED CONDITIONS: higher = more signal
Each entry belongs to exactly one class, chosen by where its composite z-score falls: one: < -0.2; two: ≥ -0.2 and < 0.1; three: ≥ 0.1

{"COMPOUND": "CC(C)[Si]1(C(C)C)O[C@@H](c2ccccc2)c2cc(C3CC3)nc(-c3ccccc3)c21", "DISCRETE LABEL": "one"}

# input Entry COC(=O)C1=CCC(c2cccc(Cl)c2)O1 (configuration not stated) belongs to which category?
# output two

# input # iterate: "O=C(CS)NCCCCCNC(=O)[C@@H]1C[C@@H]2C(=O)N[C@@H](Cc3ccccc3)C(=O)N2[C@@H]1c1ccc(O)cc1"
# output three

# input Now this one: CN1C(=O)C2C=CC(C(O)c3ccc(I)cc3)N(NC(=O)OC(C)(C)C)C2C1=O (configuration not stated)
# output three

====

Reported z-score by item:
# ASSAY: E. coli growth modulation, two-sided OD650, primary screen, E. coli filamentation project, strain DRC41, 24 h (AID 1093);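 note: MC1000 strain lacking acrAB efflux and sulA so SOS filamentation is blocked; test concentration not given here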
# REPORTED CONDITIONS: OD650, 24 h, higher = more signal, called active from +8 up or from −8 down
Answer with a bare number; do not write a unit.

Please review the entries below; each comes with its answer.
{"COMPOUND": "CCOC(=O)[C@H](Cc1ccccc1)NC(=O)CCC1CC(OC(=O)NCc2ccc3c(c2)OCO3)CC2(CCCC(COC(=O)NCc3cccc(C(F)(F)F)c3)O2)O1 (stereo partly specified)", "z-score": -1.29}
{"COMPOUND": "CC(=O)O[C@H]1C2=C(C(=O)[C@@H]3O[C@@H]31)[C@H]1C(C)O[C@@H]2[C@@]23C(=O)[C@@H]4O[C@@H]4[C@@H](O)C2=CO[C@H](C)[C@@H]13 (stereo partly specified)", "z-score": 0.16}
{"COMPOUND": "COc1ccc(O[C@H]2C=C[C@@H](c3ccccc3)O[C@@H]2COC(=O)CCC(C)=NOC[C@@H](C)[C@H](OCc2ccccc2)C(C)C)cc1", "z-score": 0.17}

# input Look up z-score for this compound: "CO[C@@H]1COC(=O)[C@@H]2CCCN2C(=O)[C@@H](C)COC(=O)[C@H](COCc2ccccc2)NC(=O)CC=C[C@H]1C"
# output -1.99

# input Thanks! And "O=C1[C@H]2[C@H]3[C@H](O)[C@H](O)CC(=NO[C@@H]4O[C@H](CO)[C@@H](O)[C@H](O)[C@H]4O)[C@H]3CC[C@H]2C(=O)N1Cc1ccccc1" ?
# output -0.61

# input // next record "CC(C)NC(=O)[C@@H]1c2ccccc2C(=O)N(CC23CC4CC(CC(C4)C2)C3)[C@H]1c1ccc(CO)cc1"
# output 1.43

====

# ASSAY: modulators of HCV replicon luciferase signal, primary screen, HCV replication inhibitor project, Huh7 cells, luciferase reporter (AID 1109);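 note: huh7 hepatoma cells harbouring a luciferase neomycin HCV replicon reporter; luciferase luminescence as measure of HCV replicon replication; test concentration not given here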
# REPORTED CONDITIONS: 48 h, higher = more signal
# maps each entry to its z-score
The answer should be a number; do not append a unit.

# annotated cases, reported z-score shown
{"COMPOUND": "CC(=O)O[C@H]1C2=C(C(=O)[C@@H]3O[C@@H]31)[C@H]1C(C)O[C@@H]2[C@@]23C(=O)[C@@H]4O[C@@H]4[C@@H](O)C2=CO[C@H](C)[C@@H]13 (some centres undefined)", "z-score": -2.66}
{"COMPOUND": "CC(CCC(=O)OC[C@H]1O[C@H](C#Cc2ccccc2)C=C[C@@H]1Oc1ccc(C)cc1)=NO[C@@H](C)c1cn([C@H](CO)Cc2ccccc2)nn1", "z-score": -1.97}
{"COMPOUND": "CC(CCN1CCCCc2nc(C)c(C)cc21)=NOC(C)CN1CCCc2nc(C)c(C)cc21 (centres undefined)", "z-score": -0.974}
{"COMPOUND": "O=C(NN=C1C[C@@H](O)[C@@H](O)[C@@H]2[C@@H]3C(=O)N(c4cccc(Oc5ccccc5)c4)C(=O)[C@@H]3CC[C@H]12)OCc1ccccc1", "z-score": -0.597}
{"COMPOUND": "COc1ccc([Si](C)(C)[C@H]2[C@H](CC(=O)N3CCC[C@H]3CO)O[C@@]3(C(=O)N(Cc4cccc(N5C(=O)COc6ccccc65)c4)c4ccccc43)[C@@H]2C)cc1", "z-score": -2.51}

# input State the recorded z-score for this entry: "CC(C)[C@@H](OCc1ccccc1)[C@H](C)C=NO[C@H](C)c1cn([C@H](CO)Cc2ccccc2)nn1"
# output -2.09

# input Record: "COc1ccc(O[C@H]2C=C[C@@H](c3ccccc3)O[C@@H]2COC(=O)CCC(C)=NOC[C@@H](C)[C@H](OCc2ccccc2)C(C)C)cc1"
# output -0.667

# input Same question, "COc1ccc(O[C@H]2C=C[C@@H](c3ccccc3)O[C@@H]2CON=C[C@@H](C)[C@H](OCc2ccccc2)C(C)C)cc1" this time
# output -2

# input Next compound up: "CCCNC(=O)[C@@H]1c2ccccc2C(=O)N(c2ccc(C)cn2)[C@H]1c1ccc(CO)cc1"
# output 0.0924

# input Thanks! And "CO[C@@H]1COC(=O)[C@H](C)NC(=O)[C@@H](C)COC(=O)CCC[C@H]1C" ?
# output -1.33

# input Similarly, CC(C)(C)N1CC=CC23O[C@@H]4C=CCCOC(=O)C4[C@H]2C(=O)N(CCCCCO)[C@@H]3C1=O (some centres undefined) ?
# output 0.651

# input Subsequent entry: "O=C(NN=C1C[C@@H](O)[C@@H](O)[C@@H]2[C@@H]3C(=O)N(c4ccc(F)cc4F)C(=O)[C@@H]3CC[C@@H]12)OCc1ccccc1"
# output -0.769

# input Can you handle "O=C1[C@H]2[C@H]3[C@H](O)[C@H](O)CC(=NOC[C@@H](O)COCc4ccco4)[C@H]3CC[C@H]2C(=O)N1c1cccc(Oc2ccccc2)c1" next?
# output 0.126

# input "CO[C@H]1COC(=O)[C@@H]2CCCN2C(=O)[C@@H](C)COC(=O)CC=C[C@@H]1C" , same question.
# output -0.496

# input Moving on to CN1C(=O)C2C=CC(C(O)C(c3ccccc3)c3ccccc3)N(NC(=O)OC(C)(C)C)C2C1=O (centres undefined)
# output -0.527

# input How about "COc1ccc(COC(=O)NN=C2C[C@@H](O)[C@@H](O)[C@@H]3[C@@H]4C(=O)N(Cc5ccc6c(c5)OCO6)C(=O)[C@@H]4CC[C@@H]23)cc1" ?
# output -0.404

# input Item: COC(=O)C1(C)C=C2C(=C(c3ccccc3)C(=O)C2C)CN1 (centres undefined)
# output -0.546

# input Next entry: "CC(=O)OC[C@H]1O[C@H](CCON=C(C)CCC(=O)OC[C@H]2O[C@H](C#Cc3ccccc3)C=C[C@@H]2Oc2ccc(C)cc2)C=C[C@@H]1OC(C)=O"
# output -0.0572

# input Then "COCCCNC(=O)[C@]1(CCC(=O)OC(C)(C)C)N=C(c2ccc(OCCCO)cc2)O[C@@H]1c1ccccc1N=[N+]=[N-]" ?
# output 0.971

# input For "CCCC[C@H]1OB(O)C[C@H]2C1=C(C)C[C@H]1C(=O)N(C)C(=O)[C@H]12" then?
# output -0.686

Entry source: PubChem BioAssay
